target: T1, human CD38 on cells (human CD38-overexpressing Jurkat cells); CD38-expressing MM.1R, THP-1 and MM.1S target … (human, UniProt P28907 1-300); assay: summing-up sentence of the examples (cell binding, SPR, CAR format)
T1 construct: also called CD38+ cells
measurement.type: binding result

binder="anti-CD38 scFv of SEQ ID NO:109 (scFv, One of the 12 selected scFvs; Also tested inside a CAR) scFv: EGQLLESGGGLVQPGGSLRLSCAASGFTFSSFAMSWVRQAPGKGLEWVSTISGSGGSTNYADSVKGRFTISRDNSKKTLYLQMSSLRAEDTAVFYCAKGPTSPYSYYMDVWGKGTTVTVSSGGGGSGGGGSGGGGSEIVMTQSPATLSLSPGERATLSCRASQSVSSSFLSWFQQKPGQAPRLLIYGASTRATGIPARFSGSGSGTDFTLTISSLQPEDFAVYYCQQDYNLPYTFGQGTKLEIK" measurement_type="binding result" value_measured=binds
binder="anti-CD38 scFv of SEQ ID NO:119 (scFv, One of the 12 selected scFvs; Also tested inside a CAR) scFv: EVQLLESGGGLVQPGGSLRLSCAASGFTFSNYDMSWVRQAPGKGLEWVSTTSASGGNTYYADSVRGRFTISRDNSKNTLYLQMNSLRAEDTAVYYCAKEGDGYNPFRDHYYYFMDVWGKGTTVTVSSGGGGSGGGGSGGGGSETVMTQSPAALSVSPGERATLSCRASQSVSSNLAWYQQKPGQAPRLLIYGASTRATGIPARFSGSGSGTEFTLTISSLQSEDFAVYYCQQYNNWPPYTFGQGTKLEIK" measurement_type="binding result" value_measured=binds
binder="anti-CD38 scFv of SEQ ID NO:117 (scFv, One of the 12 selected scFvs; Also tested inside a CAR) scFv: EVQLVESGGGVVRPGGSLRLSCAASGFTFDDYGMSWVRQAPGKGLEWVSGINWNGGSTGYADSVKGRFTISRDNAKNSLYLQMNSLRAEDTAFYHCAREGDGYKGTFYYYYYMDVWGKGTTVTVSSGGGGSGGGGSGGGGSDIQLTQSPSFLSASVGDRVTITCRASQGIFNYLAWYQQKPGKAPNLLIYAASNLQSGVPSRFSGSGSGTEFTLTISSLQPEDFATYYCQQLNSYPLTFGGGTKVEIK" measurement_type="binding result" value_measured=binds

From: patent EP4688860A2
